Items are presented alongside their recorded soluble fraction (log2).
# Experiment summary: soluble fraction after stress (log2 fold change); higher = more stays soluble; pooled small domains, quantitative proteomics
# Condition description: stress: 50 degC
Field format: numeric only.

Would you please look over these solved cases?
HMRNDIFDQLTEREMQILQEVAKGYRNKQIADHLFISESTVKVHMKSLLKKLQVPSRTAATVLYLERYG : -1.66
HMYPFSEETLKEKIREYLKTNRSINRRVLEREFYIRKQTALNWLNRLVDSGFLIKEGVRNSPVYFLAE : -0.691
HMNELTDKQILLFSNKLAHNIPFSSKYSKPGESYEEFAERLANELIDPQKVKLYKPYLEEVGFK : 0.302

What the record says about HMNPHIQFWSLLRRQPDYNSAYKDELKAMFVWQWSGEKTESLNEFYKTDPYRYKSMLMDMRNRAL : soluble fraction (log2) is -3.15

What the record says about HMQNDDLTKLDGIGPYIEQRLNDIGIYNYEQLSKLNTEDIQKITELIDFFPGRIERDNWVSQAQLLKI : soluble fraction (log2) is -0.316

What the record says about HMNLLSPREKQSLTLYASGLTLREVASELKLSPNSVGKFISRGKFKLNKSGAIVNSKTSIYLELKKRNLI : soluble fraction (log2) is -0.111

What the record says about HMSLSISSLVFFRKNAGLTQADIATAMSITQSAVARLEKRLLSDSDVTLKTLERYAEAVGIRMHVDFEP : soluble fraction (log2) is -0.0207

What the record says about HMQDPTAVISRVLEERKHQPGALLPILHGIQDALGYVPREAVAQIAQALNLSRAEIHGVVSFYHHFR : soluble fraction (log2) is -0.547
